Each item that follows carries a reported Percent Effect.
# ASSAY_SYSTEM: Aspartate--tRNA(Asp/Asn) ligase (Mycobacterium tuberculosis (strain ATCC 25618 / H37Rv))
# ASSAY_NAME: Assay for Asp RNA synthetase-1 from Mycobacterium tuberculosis
# Assay type: functional
# Set-up: scale not given: in the data most compounds retested in dose-response had high values
# CONDITION_LABEL: 30 µM
Lab book: enter the figure in %, no units written.

// known answers, use as guide
>>> test_result("Cc1ccc(N2CCCC(NCC(=O)Nc3cc(C)no3)C2)nn1 (centres undefined)")
-0.917
>>> test_result("CC(C)Oc1ncccc1CNC(=O)N1CCC1c1ccccc1 (centres undefined)")
0.589
>>> test_result("CC(C)c1nccn1C1CCCN(C(=O)c2cnc[nH]2)C1 (centres undefined)")
-0.983

Write down Percent Effect measured for item CNc1cc2c(nn1)CCN(C(=O)c1ccc(-n3nccc3C)cc1)C2 -2.02

Write down Percent Effect measured for item CC(C)c1nccn1C1CCCN(C(=O)c2cccc3c2OCO3)C1 (centres undefined) 0.582

Write down Percent Effect measured for item Cc1nn(C)c(N(C)C)c1CNCc1ccc(OCC(N)=O)cc1 -6.72

Write down Percent Effect measured for item CN(CC1COc2ccccc2O1)C(=O)NCCCn1ccnc1 (centres undefined) -0.767

Each recorded value in this set is attributed to ChEMBL document CHEMBL3988442.
